- STUDY_TARGET: γ-secretase (Homo sapiens, UniProt P49768)
- ASSAY_NOTES: Cellular γ-secretase assay (inhibition of Aβ42 secretion, AlphaLisa)
- TEST_SETTINGS: human neuroglioma H4 cells overexpressing human APP695 Swedish double mutation, 24 h compound incubation
MEASURED_QUANTITY: IC50 (nM)

Cc1cc(N2C[C@H]3CC[C@@H](C2)[C@@H]3Nc2nc3n(n2)CCCC[C@@H]3Oc2ccc(F)c(F)c2F)ncn1 (single isomer, unassigned) [Example 62]	65.8

a = Cc1cc(N2C[C@H]3CC[C@@H](C2)[C@@H]3Nc2nc3n(n2)CCC[C@H]3Oc2ccc(F)cc2F)ncn1 (single isomer, unassigned) [Example 37]
b = Cc1cc(N2C[C@H]3CC[C@@H](C2)[C@@H]3Nc2nc3n(n2)CC[C@@H]3Oc2ccc(Cl)cc2)ncn1 (single isomer, unassigned) [Example 28]
c = COc1cc(N2C[C@H]3CC[C@@H](C2)[C@@H]3Nc2nc3n(n2)CC[C@H]3Oc2cc(F)cc(F)c2)cnn1 (single isomer, unassigned) [Example 1]
Asked: # sort list by recorded IC50, greatest to least Thanks in advance for listing the labels in the requested order.
Given back: b, a, c
(b: 71.4 nM, a: 21.6 nM, c: 12.8 nM)

* * *

- STUDY_TARGET: γ-secretase (Homo sapiens)
- ASSAY_NOTES: Cellular γ-secretase assay (inhibition of Aβ42 secretion, AlphaLisa)
- TEST_SETTINGS: human neuroglioma H4 cells overexpressing human APP695 Swedish double mutation, 24 h compound incubation
pIC50: −log10 of the molar value.
MEASURED_QUANTITY: pIC50

a = Cc1cc(N2C[C@H]3CC[C@@H](C2)[C@@H]3Nc2nc3n(n2)CC[C@H]3Oc2cc(F)cc(F)c2)ncn1 (single isomer, unassigned)
b = Cc1cc(N2C[C@H]3CC[C@@H](C2)[C@@H]3Nc2nc3n(n2)CC[C@@H]3Oc2cccc(Cl)c2)ncn1 (single isomer, unassigned)
Asked: Would you kindly point out which of a and b has the smaller pIC50 figure? Please indicate the selected item by its label.
Given back: b

* * *

- STUDY_TARGET: γ-secretase (Homo sapiens)
- ASSAY_NOTES: Cellular γ-secretase assay (inhibition of Aβ42 secretion, AlphaLisa)
- TEST_SETTINGS: human neuroglioma H4 cells overexpressing human APP695 Swedish double mutation, 24 h compound incubation
- Protocol: 2.1) Assay Procedure: Cellular γ-Secretase Assay Human neuroglioma H4 cells overexpressing human APP695 with the Swedish double mutation (K595N/M596L) were plated at 30,000 cells/well/100 μL in 96-well plates in IMDM containing 10% FCS, 0.2 mg/L Hygromycin B and incubated at 37° C., 5% CO2. […] After incubation at 37° C., 5% CO2, the supernatant was subjected to quantification of secreted Aβ42 by the means of an AlphaLisa® assay kit (Human Amyloid beta 1-42 Kit, Perkin Elmer Inc.). […]
pIC50: −log10 of the molar value.
MEASURED_QUANTITY: pIC50

# annotated cases, reported pIC50 shown
COc1cc(N2C[C@H]3CC[C@@H](C2)[C@@H]3Nc2nc3n(n2)CC[C@@H]3Oc2cc(F)cc(F)c2)cnn1 (single isomer, unassigned)	7.13
COc1cc(N2C[C@H]3CC[C@@H](C2)[C@@H]3Nc2nc3n(n2)CCC[C@H]3Oc2ccccc2Cl)cnn1 (single isomer, unassigned)	7.80

A = COc1cc(N2C[C@H]3CC[C@@H](C2)[C@@H]3Nc2nc3n(n2)CCC[C@H]3Oc2cc(F)cc(F)c2)cnn1 (single isomer, unassigned)
B = Cc1cc(N2C[C@H]3CC[C@@H](C2)[C@@H]3Nc2nc3n(n2)CCC[C@@H]3Oc2cc(F)cc(Cl)c2)cnn1 (single isomer, unassigned)
Asked: Would you mind telling me which has the lower recorded pIC50 between A and B ? Answer by stating the label of the chosen item.
Given back: B
